Tested on: HEK293
Assay: Cytotoxicity against HEK293 cells expressing UGT1A3 assessed as decrease in cell viability at 1 mM measured at 24 hrs by MTT assay
Assay type: ADME, cell-based
Conditions: human, hek293, 24 h, 1000 µM

[
  {
    "compound": "O=C(O)c1ccccc1O [SALICYLIC ACID]",
    "Activity": "Non-toxic"
  },
  {
    "compound": "CCCN(CCC)S(=O)(=O)c1ccc(C(=O)O)cc1 [PROBENECID]",
    "Activity": "Non-toxic"
  },
  {
    "compound": "NS(=O)(=O)c1cc(C(=O)O)c(NCc2ccco2)cc1Cl [FUROSEMIDE]",
    "Activity": "Non-toxic"
  }
]
